Source: patent US20260028391A1

Could you please report measured MPV D280 Neutralization - IC50 for the items listed next?
test.target: fusion glycoprotein of the MPV D280 used in the neutralization assay of Example 3 (metapneumovirus (strain not stated))
assay: cell-based or functional assay
Field: numeric (µg/mL). Do not append units.

In: // MPV D280 Neutralization - IC50 lookup, key: MPK162 (antibody, V domains shown) VH: EVQLVESGGGLVKPGDSLRLSCAASGFSLSSYYMFWIRQAPGKGLEWVSDISGGSTFTNYADSVKGRFTISRDNAKKVLYLQMNSLRVDDSAVYYCVRGSSISPNWFESWGQGALVTVSS VL: QSVLTQPPSVSGAPGQRVTISCTGTSSNIGAGYDVHWYQQVPGTAPKLLIYGNSNRPSGVPDRFSGSKSGTAASLAINGLQTEDEAEYYCQSYDRSLTGSYVFGSGTRVFVR
Out: 0.102

In: // MPV D280 Neutralization - IC50 lookup, key: MPK144 (antibody, V domains shown) VH: EVQLVESGGGLVRPGGSLRLSCAASGFTFTGYYMMWIRQAPGKGLEWISDISSSSSYTNYADSVKGRFAISRDNAQNTLYLQMNSLRAEDTAVYYCATEQVPSPGPFDLWGQGTLVTVSS VL: QSVLTQPPSVSGAPGQRVTISCTGSSSNFGAGYDVHWYQQFPGTSPKLLIYRNTNRPSGVPDRFSGSKSGTSASLAITGLQAEDEADYYCQSYDRSLTGWVFGGGTKLTVL
Out: 0.0049

In: // MPV D280 Neutralization - IC50 lookup, key: MPK136 (antibody, V domains shown) VH: EVQLVESGGGLVKPGGSLRLSCEASGFSLSGYYMIWIRQAPGKGLEWISSISGSGNYINYADSVKGRFTVSRDNGHNTLYLQMNSLRVEDTAVYYCATEQTPSPGPFDHWGQGTLVTVSS VL: QVQLVQPPSVSGAPGQRVSISCTGTSSNIGTGYDVHWYQQFPGTSPKLLIYRNTNRPSGVPDRFSGSKSGSSASLAIAGLQAEDEADYYCQSYDRSVSGWVFGGGTKLTVL
Out: 0.0158

In: // MPV D280 Neutralization - IC50 lookup, key: MPK141 (antibody, V domains shown) VH: EVQLVESGGGLVKPGGSLRLSCAASGFTISGYYMTWIRQAPGKGLEWISYISGSSSYTNYADSVKGRFTISRDNGRNSVYLQMNSLRADDTGVYYCAREETPSPGPFDSWGQGILVTVSS VL: QSVLTQPPSVSGAPGQRIIISCIGSSSNIGTGYDVHWYQQLPGRAPKLLISRNTNRPSGIPDRFSGSKSGTSASLAITGLQADDEADYYCQSYDRGLDGWVFGGGTKLTVL
Out: 0.0098

In: // MPV D280 Neutralization - IC50 lookup, key: MPK153 (antibody, V domains shown) VH: EVHLVESGGGLVKPGGSLRLSCAASGFTFTGYFMIWIRQAPGKGLEWISYISSSSNYINYADSVKGRFTISRDNGQNTLYLQMNSLRPDDTAVYYCATEQVPSPGPFDLWGQGTLVTVSS VL: QSVLTQPPSVSGAPGQRVIISCTGTSSNIGAGYDVHWYQQFPGASPKLLIFRNTDRPSGVPDRFSGSKSGSSASLAIAGLQAEDEADYYCQSYDRSLDGWVFGGGTKVTVL
Out: 0.0199
